- Test system: HCT-15 colon
- EXPERIMENTAL DETAILS: NCI-60 one-dose screen, 48 h (100 = growth as untreated, 0 = no growth, -100 = all killed)
- TEST CONDITIONS: 10 µM unless noted
- Protocol: Growth inhibition of the HCT-15 human tumor cell line is measured as a screen for anti-cancer activity. Cells are grown in 96 well plates and exposed to the test compound for 48 hours. Compounds are tested at a single concentration, which is 10^-5 M for most compounds. The reported endpoint is percent growth (GI% or GIPRCNT), where numbers from 0 - 100% represent growth inhibition, and numbers from -100% - 0 represent cell death. For example, a value of 40 represents 60% growth inhibition. […]
The panel holds about 83,000 compounds, 20% with a hit somewhere; the sample as a whole holds those more often. Calls of active or inactive are those of the source. How the source made its calls: active means growth percent below 10; inactive means the rest.
I'd appreciate it if you could supply growth values for the items below.

Form field growth, entry `C#CCn1cnc2c(Nc3cccc(NC(=O)CCl)c3)ncnc21` : 23.4% (inactive)

Form field growth, entry `CCNC(=O)Oc1ccc(/C(=C(/C)Cc2ccc(OC)cc2)c2ccc(OCCN3CCCC3)cc2)cc1` : 45.9% (inactive)

Form field growth, entry `Cc1cccc(N2CCN(C(=S)c3ccc4c(c3)OCO4)CC2)c1` : 12.5% (inactive)

Form field growth, entry `CCNCc1ccc(O)c2ncccc12` : 28% (inactive)

Form field growth, entry `O=C(O)c1cn(C2CC2)c2cc(N3CCN(C(=O)N/N=C/c4ccccc4)CC3)c(F)cc2c1=O` : 98.4% (inactive)

Form field growth, entry `CC/C=C1/C(=O)C=C[C@@H]1C/C=C\CCCC(=O)OC` : 21.2% (inactive)

Form field growth, entry COc1ccc(C2=Nc3c(N)ncnc3NC(c3cccc(Nc4ccnc5cc(C(F)(F)F)ccc45)c3)C2)cc1 (stereo not drawn) : 32.4% (inactive)

Form field growth, entry `COc1ccc(-c2oc(=O)ccc2-c2cc(OC)c(OC)c(OC)c2)cc1O` : 27.1% (inactive)

###

- System: OVCAR-4 ovarian
- EXPERIMENTAL DETAILS: NCI-60 one-dose screen, 48 h
- TEST CONDITIONS: 10 µM unless noted
About 83,000 compounds went through this panel and 20% of them were active in at least one assay; those are over-represented in the sample as a whole. Calls of active or inactive are those of the source. Rule for the calls: active = growth percent below 10; inactive = the rest.
// allowed return values: label 1 (active), label 0 (inactive)

Query :: Can you look up the reported call for COc1ccc(C(c2cc(OC)c(OC)c(OC)c2)N2CCCC2)cc1 (stereo not given) for me?
Result :: label 0

Query :: Can you look up the reported call for `COc1ccc(/C=C/C(=O)c2ccc(NC(=O)CSc3nnc(-c4cc(-c5ccccc5)nc5ccccc45)n3-c3ccccc3)cc2)cc1` for me?
Result :: label 0

Query :: Can you look up the reported call for `CCOc1ccc(/C=N\N=C\c2ccc(OCC)cc2)cc1` for me?
Result :: label 0

Query :: Can you look up the reported call for `Cc1cc2nc(-c3c(-c4ccc(F)cc4)nc4sccn34)[nH]c2cc1C` for me?
Result :: label 0

Query :: Can you look up the reported call for `CCCCCSB(SCCCCC)c1ccccc1` for me?
Result :: label 0

Query :: Can you look up the reported call for `C#CCOc1ccc2ncnc(Nc3cccc(NC(=O)CCl)c3)c2c1` for me?
Result :: label 0

Query :: Can you look up the reported call for Cc1c(N2CN3C[C@H](C)N4CN(c5c(C)n(C)n(-c6ccccc6)c5=O)CN5C[C@@H](C)N(C2)C3C54)c(=O)n(-c2ccccc2)n1C (stereo not given in full) for me?
Result :: label 0

Query :: Can you look up the reported call for `Cc1ccc(-c2nc(C#N)c(S(=O)(=O)NCCO)o2)cc1` for me?
Result :: label 0

Query :: Can you look up the reported call for `O=C1c2cccnc2C(=O)c2c1c(C(=O)OCCCN1CCCCC1)c1ccccn21` for me?
Result :: label 1

Query :: Can you look up the reported call for `CC(C)c1ccc(NC(=O)Nc2ccc(NC(=O)c3ccccc3N)cc2)cc1` for me?
Result :: label 0

Query :: Can you look up the reported call for `Cc1c2ccccc2nc2c1ccc1cccnc12` for me?
Result :: label 0

Query :: Can you look up the reported call for `CC(C)(C)c1cc(C=Nc2cccc(C(F)(F)F)c2)c(O)c(C(C)(C)C)c1` for me?
Result :: label 0

Query :: Can you look up the reported call for `CCN(CC)c1ccc(/C=N/NC(=O)c2ccc(Nc3ccnc(C(F)(F)F)c3)cc2)c(O)c1` for me?
Result :: label 0

Query :: Can you look up the reported call for `Cc1cc(N2CCN(C)CC2)nc(NCc2cc(Nc3ccnc4cc(Cl)ccc34)ccc2F)n1` for me?
Result :: label 0

Query :: Can you look up the reported call for `NC(=O)c1c(NC(=O)c2ccc(Cl)cc2)sc2c1CCC(=O)C2` for me?
Result :: label 1

Query :: Can you look up the reported call for `Cc1c2cnccc2c(C)c2c1c1cc(C3OCCCO3)ccc1n2C` for me?
Result :: label 1

Query :: Can you look up the reported call for `O=C1/C(=C/c2ccc(C(F)(F)F)cc2)COc2ccc(O)cc21` for me?
Result :: label 0

Query :: Can you look up the reported call for `O=c1ccc2nc(C(F)(F)F)nn(-c3ccccc3)c-2c1` for me?
Result :: label 0

Query :: Can you look up the reported call for `COc1cc(-c2cc(-c3ccc(Nc4ncnc5cc(Cl)ccc45)cc3)nc(N3CCN(C)CC3)n2)cc(OC)c1OC` for me?
Result :: label 0

Query :: Can you look up the reported call for `COc1cc2c3c(c1O)-c1ccccc1[C@@H]1OC(=O)N(CC2)[C@H]31` for me?
Result :: label 0

Query :: Can you look up the reported call for `N#CC(C#N)N=Nc1ccc(Cl)cc1Cl` for me?
Result :: label 0

Query :: Can you look up the reported call for `CC1(C)CC[C@]2(C(=O)N3CCOCC3)CC[C@]3(C)C(=CC[C@@H]4[C@@]5(C)C/C(=C/c6ccncc6)C(=O)C(C)(C)[C@@H]5CC[C@]43C)[C@@H]2C1` for me?
Result :: label 0

Query :: Can you look up the reported call for `Cn1cc(-c2nonc2-c2c[nH]c3ccc(F)cc23)c2cc(Br)ccc21` for me?
Result :: label 0

Query :: Can you look up the reported call for `O=C(Nc1ccccc1)c1sc(-c2ccccc2)cc1O` for me?
Result :: label 0

Query :: Can you look up the reported call for `N#CCC1=NC(c2cccs2)=Nc2ccccc2S1` for me?
Result :: label 0

Query :: Can you look up the reported call for `O=C(Nc1ncc(Cc2ccccc2Cl)s1)c1cccs1` for me?
Result :: label 0

Query :: Can you look up the reported call for CCCCN1C(=O)/C(=c2\sc3n(c2=O)NC2C(N=3)N(CC)C(=O)N2CC)c2ccccc21 (stereo not given) for me?
Result :: label 0

Query :: Can you look up the reported call for COc1ccc(C(c2cc(OC)c(OC)c(OC)c2)N2CCN(Cc3ccccc3)CC2)cc1 (stereo not given) for me?
Result :: label 0

Query :: Can you look up the reported call for `O=C(CBr)CN1C(=O)c2ccccc2C1=O` for me?
Result :: label 0

Query :: Can you look up the reported call for `CCOC(=O)c1c(-c2ccccc2)n2c(=O)cc(C)c3c(O)c(O)cc1c32` for me?
Result :: label 0

Query :: Can you look up the reported call for `COc1ccc(/C(C)=C(\c2ccc(OCCN3CCCCCC3)cc2)c2ccc(OC(=O)c3ccccc3)cc2)cc1` for me?
Result :: label 0

Query :: Can you look up the reported call for `S=c1ssnc1-c1cccs1` for me?
Result :: label 0

Query :: Can you look up the reported call for COc1ccc(NC(=O)c2sc3nc(C)c(C(O)c4ccccc4)cc3c2N)cc1 (stereo not given) for me?
Result :: label 0

Query :: Can you look up the reported call for COc1ccc(C2=Nc3c(N)ncnc3NC(c3cccc(Nc4ccnc5cc(C(F)(F)F)ccc45)c3)C2)cc1 (stereo not given) for me?
Result :: label 0

Query :: Can you look up the reported call for C=C(CO)[C@@H]1CC[C@]2(COC3CCCCO3)CC[C@]3(C)[C@H](CC[C@@H]4[C@@]5(C)C=C(C=O)C(=O)C(C)(C)[C@@H]5CC[C@]43C)[C@@H]12 (stereo not given in full) for me?
Result :: label 1
